Listing: melting point of selected compounds
parameter: melting point

> print(dat)
                                    compound     meas.value
 1                      C(=Nn1ccnc1)c1ccccc1         115 °C
 2           CCOC(=O)c1ccc(NCC=Cc2ccccc2)cc1  123 to 131 °C
 3  COc1ccc(C(C)=NOCCOc2ccc(CC3SC(=O)NC3=O)cc2)cn1 (stereo not given)  148 to 149 °C
 4              COC(=O)c1cc2c(OC(C)C)cccc2o1    43 to 45 °C
 5  O=C(O)C1=Cc2cc(-c3ccc(C(F)(F)F)cc3)ccc2S(=O)(=O)CC1       > 300 °C
 6  Cc1oc(-c2ccccc2)nc1COc1ccc(Cn2cc(CCCC(=O)O)c(-c3ccccc3)n2)cc1  118 to 119 °C
 7  NCCC(Nc1ccccc1)c1ccccc1 (stereo not given)  104 to 105 °C
 8  Cn1ncnc1COc1nn2c(-c3cccc(F)c3)nncc2c1-c1ccccc1         198 °C
 9            CC(C)N1CCN(c2ccc(N)cc2)C(=O)C1  156 to 159 °C
10  CON=C(C1=NOCCO1)c1ccccc1COc1ccn(-c2ccc(Cl)cc2)n1    56 to 59 °C

---

parameter: melting point

> print(dat)
                                    compound     meas.value
 1           O=c1oc2c(c(=O)n1C1CCCCCCC1)CCC2    48 to 51 °C
 2  Cn1c(C(F)(F)F)cc(=O)n(-c2ccc3snc(C4OCCO4)c3c2)c1=O  213 to 216 °C
 3  O=C(Nc1ccc2nc(CN3CCOCC3)ccc2c1)c1ccc(-c2ccc(F)cc2)cc1  211 to 212 °C
 4                  CCc1nn2ccccc2c1NC(=O)COC  106 to 108 °C
 5  CCOc1cc(C(CS(C)(=O)=O)N2C(=O)c3cccc(NC(=O)COCc4ccccc4)c3C2=O)ccc1OC (stereo unspecified)  154 to 156 °C
 6  CS(=O)(=O)NC1CCCc2ccc([N+](=O)[O-])cc21 (stereo unspecified)  150 to 152 °C
 7  O=C(CCC(=O)Oc1cc(O)cc(O)c1)Oc1cc(O)cc(O)c1  213 to 217 °C
 8  COc1cc(C(=O)COC(C)=O)ccc1OCCCN1CCC(C(O)(c2ccc(F)cc2)c2ccc(F)cc2)CC1  138 to 140 °C
 9           COC(=O)C1CCN(CCc2ccc(OC)cc2)CC1    66 to 68 °C
10  O=C(O)[C@@H]1CC(=Cc2ccccc2)CN1C(=O)OCc1ccccc1  142 to 150 °C
11  CC(=O)O[C@@H]1C(=O)N[C@@H]1c1ccccc1 (relative stereo)  150 to 151 °C
12  CC(CCO)NC1=NS(=O)(=O)c2sc(Cl)cc2N1 (stereo unspecified)  199 to 203 °C
13           Cc1nn(C)c2nc(-c3ccncc3)nc(N)c12  235 to 236 °C
14  CC1(C)C(=O)Oc2ccc3cc([N+](=O)[O-])c(Cn4cncn4)cc3c21  183 to 185 °C
15          O=[N+]([O-])c1c(O)c(O)cc2ccccc12  141 to 143 °C
16              C=CCOc1cccc(C2=NNC(=O)CC2)c1  111 to 113 °C
17          O=C(NC1=NN(c2ccccc2)CC1)C(F)(F)F  163 to 165 °C
18          Oc1ccc2c(c1)CN(Cc1ccc(Cl)cc1)CC2  177 to 178 °C
19            Fc1ccc(Nc2ccnc3cc(Cl)ccc23)cc1  214 to 216 °C
20  CCOC(=O)CSc1nc(Cl)cc(NN=Cc2ccc(Cl)cc2)n1  162 to 165 °C
21  CCc1cc2c(-c3ccccc3OC)c(NC(=O)Nc3cc(C)c(OC(C)=O)c(C)c3)cnc2s1  217 to 218 °C
